tested on: FB; assay: Euclidean distance of Cell Painting phenotypic profile (signed KS, 77 features) to DMSO centroid (dimensionless distance); 5 or 10 uM (library dependent); higher = stronger phenotypic change vs DMSO (phenoactivity); conditions: 48 h
Assay metric: Euclidean distance
Answers are plain numbers.

Compound: OCC1OC(OC2OC(CO)C(O)C(O)C2O)C(O)C(O)C1O [D-(+)-Trehalose Anhydrous]
Euclidean distance: 1.26

Compound: CC1(C)CNc2cc(NC(=O)c3cccnc3NCc3ccncc3)ccc21 [Motesanib Diphosphate (AMG-706)]
Euclidean distance: 1.96

Here is the next item to consider.
IN: Supply measured Euclidean distance of CCCNC(C)C(=O)Nc1ccccc1C (stereo not drawn) in your reply.
OUT: 1.93

The reported measurements were obtained from the supplement of paper PMC10127200.
